system: HUVEC (normal human umbilical vein endothelial cells); test: VEGF-induced HUVEC proliferation: cell proliferation inhibitory action test; type: cell-based; settings: 72 h, 5 μL of 20 μg/mL test compound solution per well, WST-8 absorbance at 450 nm three days after VEGF addition, read-out: Cell proliferation inhibition rate (%);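 also: each well holds 100 µL cell suspension before compound addition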
Structures can show the parent of a compound that is named as a salt.
Collected inhibition at 20 µg/mL (stock) values appear next to each entry.
Give a bare numeral; the unit % is implied.

- Cc1cc(C)cc(NC(=O)c2cccnc2SCc2ccnc(N3CCOCC3)c2)c1: 100
- O=C(Nc1ccc2c(c1)CCC2)c1cccnc1SCc1ccnc(N2CCOCC2)c1: 94
- CNc1cc(CSc2ncccc2C(=O)Nc2ccc(OC(F)(F)F)cc2)ccn1 [Compound 3-8, monohydrochloride]: 100

Problem: Complete the entry with inhibition at 20 µg/mL (stock) for "CC(=O)Nc1cc(CSc2ncccc2C(=O)Nc2ccc(OC(F)(F)F)cc2)ccn1"
Result: 93

Problem: Look up and report measured inhibition at 20 µg/mL (stock) for this entry: "CC(=O)Nc1cc(CSc2ncccc2C(=O)Nc2cc(C)cc(C)c2)ccn1"
Result: 100

---

system: HUVEC (normal human umbilical vein endothelial cells); test: VEGF-induced HUVEC proliferation: cell proliferation inhibitory action test; assay type: cell-based; conditions: 72 h, 5 μL of 20 μg/mL test compound solution per well, WST-8 absorbance at 450 nm three days after VEGF addition, read-out: Cell proliferation inhibition rate (%);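 also: each well holds 100 µL cell suspension before compound addition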
Counter-ions that a name gives are not always drawn.
outcomeMeasure: inhibition at 20 µg/mL (stock) (%)
Provide the reading as a plain figure in %.

Below, 10 molecules whose answers are already recorded.
• Cc1cc(C)cc(NC(=O)c2cccnc2SCc2ccnc(NC(=O)C(F)(F)F)c2)c1 [Compound 4-3] = 100
• O=C(CO)Nc1cc(CSc2ncccc2C(=O)Nc2ccc(OC(F)(F)F)cc2)ccn1 [Compound 12-1] = 78
• Nc1cc(CSc2ccccc2C(=O)Nc2ccc(Cl)cc2)ccn1 [Compound 3-21, monohydrochloride] = 100
• CNC(=O)Nc1cc(CSc2ncccc2C(=O)Nc2ccc(Cl)cc2)ccn1 [Compound 9-3] = 100
• CC(C)(C)OC(=O)Nc1cc(CSc2ncccc2C(=O)Nc2ccc(OC(F)(F)F)cc2)ccn1 [Compound 2-4] = 99
• CN(C)CCN(C)CC(=O)NC(Sc1ncccc1C(=O)Nc1ccc(OC(F)(F)F)cc1)c1ccncc1 (stereo not shown) [Compound 17-28] = 100
• Cc1cc(C)cc(NC(=O)c2cccnc2SCc2ccnc(NC(=O)Nc3ccc(Cl)cc3)c2)c1 [Compound 5-3] = 100
• CC(=O)Nc1cc(CSc2ncccc2C(=O)Nc2ccc(Cl)cc2)ccn1 [Compound 4-10] = 100
• CNC(=O)Nc1cc(CSc2ncccc2C(=O)Nc2cc(C)cc(C)c2)ccn1 [Compound 9-1] = 100
• CC(=O)Nc1cc(CSc2ccccc2C(=O)Nc2ccc(Cl)cc2)ccn1 [Compound 4-42] = 100

Problem: Look up and report measured inhibition at 20 µg/mL (stock) for this entry: CC(=O)Nc1cc(CSc2ncccc2C(=O)Nc2ccc3cn[nH]c3c2)ccn1 [Compound 4-22]
Result: 97

Problem: Read off the recorded inhibition at 20 µg/mL (stock) for CC(=O)N1CCN(c2cc(CSc3ncccc3C(=O)Nc3cc(C)cc(C)c3)ccn2)CC1 [Compound 1-6]
Result: 100

Problem: Could you please provide reported inhibition at 20 µg/mL (stock) for CC(=O)OCC(=O)Nc1cc(CSc2ncccc2C(=O)Nc2cc(C)cc(C)c2)ccn1 [Compound 10-1] ? Thanks!
Result: 100
